Experiment: ATG_NFI_CIS: Attagene CIS-FACTORIAL HepG2 Assay for human Nuclear Factor I (NFI) (AID 2282989)
Conditions: HepG2 cis-regulatory reporter, NFI response element transcription; actives raise or lower the signal
Experimental: ATG_CIS is a cell-based, multiplexed-readout assay that uses HepG2, a human liver cell line, with measurements taken at 24 hours after chemical dosing in a 24-well plate.ATG_NFI_CIS is one of 52 assay component(s) measured or calculated from the ATG_CIS assay. […] This assay endpoint, ATG_NFI_CIS, was analyzed with bidirectional fitting relative to DMSO as the negative control and baseline of activity. […]
Calls of active or inactive are those of the source. Rule for the calls: active = hit-call score of the fitted dose curve at least 0.9, where 1 is the maximum; inactive = score below 0.9.
Assign a class; possible classes are true (1) (active), false (0) (inactive)

Test call for this molecule, please: CCC(C)(C)c1cc(O)c(C(C)(C)CC)cc1O true (1)

Test call for this molecule, please: O=C1OCc2ccccc21 false (0)

Test call for this molecule, please: CC(O)CN (stereo not given) false (0)

Test call for this molecule, please: C[C@H](CCC(=O)O)[C@H]1CC[C@H]2[C@@H]3CC[C@@H]4C[C@H](O)CC[C@]4(C)[C@H]3CC[C@]12C true (1)

Test call for this molecule, please: CCCCCCCCOC(=O)c1ccc(O)cc1 false (0)

Test call for this molecule, please: O=C(O)C1=NN(c2ccc(S(=O)(=O)O)cc2)C(=O)C1 false (0)

Test call for this molecule, please: CC(C)C(=O)c1ccccc1 false (0)

Test call for this molecule, please: C=C(C)CCCC(C)CCO (stereo not given) false (0)

Test call for this molecule, please: CCCCCCC(O)CCOC(C)=O (stereo not given) false (0)

Test call for this molecule, please: CCC(=O)OC/C=C(\C)CCC=C(C)C false (0)

Test call for this molecule, please: CCC(=O)OCC=Cc1ccccc1 false (0)

Test call for this molecule, please: c1ccc2scnc2c1 false (0)

Test call for this molecule, please: CCCCCCCCCCCCOC(C)=O false (0)

Test call for this molecule, please: CCCCCCCCCCCCOCCOS(=O)(=O)O false (0)

Test call for this molecule, please: N#CCCNCCC#N false (0)

Test call for this molecule, please: CC1=CCC(=C(C)C)CC1 false (0)

Test call for this molecule, please: O=C(O)c1ccc(C(=O)O)c(C(=O)O)c1 false (0)

Test call for this molecule, please: CC1=CC[C@@H]2C[C@H]1C2(C)C false (0)

Test call for this molecule, please: CC(C)(CO)CO false (0)

Test call for this molecule, please: CCCCCc1cccc(=O)o1 false (0)

Test call for this molecule, please: CCCCOCCOCCOCCO false (0)

Test call for this molecule, please: NCCN1CCNCC1 false (0)

Test call for this molecule, please: O=C(O)CS false (0)

Test call for this molecule, please: CC/C=C\C#N false (0)

Test call for this molecule, please: CC(C)=CCCC(C)=CC(=O)O false (0)

Test call for this molecule, please: CCCCCCC(C)O (stereo not given) false (0)

Test call for this molecule, please: CC(=O)CC(C)(C)C1CCCCC1 false (0)

Test call for this molecule, please: C=C(C)C(=O)OCCOCCOC(=O)C(=C)C false (0)

Test call for this molecule, please: CC(CCO)CC(C)(C)C (stereo not given) false (0)

Test call for this molecule, please: CCCCCC1C(=O)CCC1CC(=O)OC (stereo not given) false (0)

Test call for this molecule, please: CCCO[Si](OCCC)(OCCC)OCCC false (0)

Test call for this molecule, please: CC(C)N(c1ccccc1)C(C)C false (0)

Test call for this molecule, please: CCOC(=O)C=Cc1ccccc1 false (0)

Test call for this molecule, please: O=S(=O)(O)c1cc(S(=O)(=O)O)c2c(N=Nc3ccccc3)c(O)ccc2c1 false (0)

Test call for this molecule, please: S=c1[nH][nH]c(=S)s1 false (0)

Test call for this molecule, please: COC(=O)C(C)Oc1ccc(Oc2ncc(C(F)(F)F)cc2Cl)cc1 (stereo not given) false (0)

Test call for this molecule, please: CCCOC(=O)CC false (0)

Test call for this molecule, please: CCCCCCCCCCCCCCCCCC(=O)OCCCCCCCCCCCCCC(C)C false (0)

Test call for this molecule, please: CCCCOCCOC(=O)c1ccccc1C(=O)OCCOCCCC false (0)

Test call for this molecule, please: c1ccc2c(c1)-c1ccc3ccc4cccc5cc-2c1c3c45 false (0)

Test call for this molecule, please: CC(CO)c1ccccc1 (stereo not given) false (0)

Test call for this molecule, please: CC/C(=C(\c1ccccc1)c1ccc(OCCN(C)C)cc1)c1ccccc1 false (0)

Test call for this molecule, please: Cc1ccc(C(C)(C)O)cc1 false (0)

Test call for this molecule, please: CCCCCCOc1ccc(O)cc1 false (0)

Test call for this molecule, please: O=C1OC2(c3ccc(O)cc3Oc3cc(O)ccc32)c2ccccc21 false (0)

Test call for this molecule, please: NC(=O)NC(N)=O false (0)

Test call for this molecule, please: CC1=CCC(C(C)C)=CC1 false (0)

Test call for this molecule, please: CCO[Si](CCC#N)(OCC)OCC false (0)

Test call for this molecule, please: CC(=O)CCc1ccc(O)cc1 false (0)

Test call for this molecule, please: Cc1cc(O)c(C)c(C)c1O false (0)
